These data points were gathered from patent US20130266574A1.

# target_entity: T1, amino acid residues 26-148 of human ANGPTL4 fused in-line to mouse IgG2a (hANGPTL4-mFc) (human)
# T1 construct: contains the N-terminal coiled-coil region
# T1 chain: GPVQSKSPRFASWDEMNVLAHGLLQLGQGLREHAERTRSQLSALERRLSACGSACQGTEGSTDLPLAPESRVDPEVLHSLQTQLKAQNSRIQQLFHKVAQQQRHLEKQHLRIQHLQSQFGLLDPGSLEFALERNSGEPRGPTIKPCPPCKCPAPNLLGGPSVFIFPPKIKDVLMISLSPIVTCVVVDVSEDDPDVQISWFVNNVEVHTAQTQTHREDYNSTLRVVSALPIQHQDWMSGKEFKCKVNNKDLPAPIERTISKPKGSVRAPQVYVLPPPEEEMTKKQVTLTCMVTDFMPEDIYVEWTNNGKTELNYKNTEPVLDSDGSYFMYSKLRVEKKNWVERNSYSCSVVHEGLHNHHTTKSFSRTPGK
# test: SPR (Biacore), 25° C., pH 7.2, antigen captured by anti-mFc
measurement_type: t1/2 (h)
Provide the reading as a plain figure in h.

Note to self: t1/2 recorded for H1H284P (antibody, V domains shown, also called entire H1H284 mAb; Full mAb) VH: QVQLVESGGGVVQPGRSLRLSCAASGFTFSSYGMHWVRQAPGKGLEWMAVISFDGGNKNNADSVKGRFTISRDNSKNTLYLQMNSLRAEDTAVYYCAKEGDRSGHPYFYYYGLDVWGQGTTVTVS VL: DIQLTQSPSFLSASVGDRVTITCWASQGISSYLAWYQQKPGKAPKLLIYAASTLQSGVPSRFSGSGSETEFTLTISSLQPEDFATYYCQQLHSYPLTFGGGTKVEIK was 3.6

Consider H1H284P Fab fragment (Fab, V domains shown, Fab made by papain digestion of H1H284P (IgG1); also called H1H284 Fab) VH: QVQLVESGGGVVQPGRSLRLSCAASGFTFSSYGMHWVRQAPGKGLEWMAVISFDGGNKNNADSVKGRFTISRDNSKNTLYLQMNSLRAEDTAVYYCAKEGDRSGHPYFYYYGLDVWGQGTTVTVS VL: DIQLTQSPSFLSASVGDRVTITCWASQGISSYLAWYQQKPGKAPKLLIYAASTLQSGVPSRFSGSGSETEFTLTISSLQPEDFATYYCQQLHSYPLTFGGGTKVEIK . Its measured t1/2 is 0.95

Recorded t1/2 (binder H1H268P Fab fragment (Fab, V domains shown, Fab made by papain digestion of H1H268P (IgG1); also called H1H268 Fab) VH: QVQLQESGAGLLKPSETLSLTCTVYGGSFSIHHWTWIRHPPGKGLEWIGEINHRGSTNYNPSLKSRVTISIDTSKNQFSLKLSAVTAADTAVYYCARGLRFLDWLSSYFDYWGQGTLVTVSS VL: DIQMTQSPSSLSASVGDRVTITCRASQGISDYLAWYQQKPGKVPNLLIYAASALQSGVPSRFSGSGSGTDFTLTISSLQPEDVATYYCQNYNTAPLTFGGGTKVEIK ): 0.317

t1/2 in this record for H1H268P (antibody, V domains shown, also called entire H1H268 mAb; Full mAb) VH: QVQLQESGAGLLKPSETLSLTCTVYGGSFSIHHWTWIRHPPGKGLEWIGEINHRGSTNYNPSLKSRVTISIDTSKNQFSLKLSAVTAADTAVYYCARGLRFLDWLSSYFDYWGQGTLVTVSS VL: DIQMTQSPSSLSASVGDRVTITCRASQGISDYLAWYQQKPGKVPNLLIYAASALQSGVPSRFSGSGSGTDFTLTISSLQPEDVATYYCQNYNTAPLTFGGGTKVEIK : 2
